# study system: T1, human adenosine A2A receptor (A2aR) (human, UniProt P29274 1-412)
# T1 construct: Assays used HEK293 cells stably overexpressing human A2aR (BPS Bioscience 79381), human A2aR-expressing CHO cells, or endogenous A2aR on human PBMC; also called human A2aR; hA2aR
# T1 sequence (P29274 whole entry): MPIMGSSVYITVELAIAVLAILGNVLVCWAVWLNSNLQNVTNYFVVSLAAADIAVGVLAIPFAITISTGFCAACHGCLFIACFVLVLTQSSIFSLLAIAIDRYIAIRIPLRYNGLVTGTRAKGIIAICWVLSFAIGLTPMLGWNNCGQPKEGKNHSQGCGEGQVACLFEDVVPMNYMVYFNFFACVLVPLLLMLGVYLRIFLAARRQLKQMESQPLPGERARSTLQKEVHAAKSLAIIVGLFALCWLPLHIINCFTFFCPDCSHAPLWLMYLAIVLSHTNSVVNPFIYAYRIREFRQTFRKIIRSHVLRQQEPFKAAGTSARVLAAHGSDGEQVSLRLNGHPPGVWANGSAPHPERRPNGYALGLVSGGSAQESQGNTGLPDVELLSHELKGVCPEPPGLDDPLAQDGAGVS
# measurement protocol: flow cytometry titration, HEK293-hA2aR cells, purified antibody
Output Yes for records whose EC50 is lower than 0.6 nM, No for records at or above 0.6 nM.

Use the examples below as a reference point.
| binder | category label |
| --- | --- |
| Hu3F8-H1/Hu3F8-L5 (antibody, human IgG1, V domains shown, Human IgG1 FES (L234F, L235E, P331S) and human Ig kappa constant domains; also called Hu3F8 VH1/VL5) VH: QVQLVQSGAEVKKPGASVKVSCKASGFTFTRYWMNWVRQAPGQGLEWMGRIDPSDSETHYNHKFWGRVTMTRDTSTSTVYMELSSLRSEDTAVYYCLRSLYGKGDYWGQGTTVTVSS VL: DVVMTQSPLSLPVTPGEPASISCRSSQSIVHSNGNTYLEWYLQKPGQSPQLLIYKVSNRFSGVPDRFSGSGSGTDFTLKISRVEAEDVGVYYCYQGSHVPLTFGGGTKVEIK | No |
| Hu3F6-H3/Hu3F6-L5 (antibody, human IgG1, V domains shown, Human IgG1 FES (L234F, L235E, P331S) and human Ig kappa constant domains; also called Hu3F6 VH3/VL5; Hu3F6-VH3/VL5) VH: EVQLVQSGAEVKKPGASVKVSCKTSGFAFTSYWMNWVRQAPGQGLEWIGRIDPSDSEAHYHHKFWGRATLTVDTSSSTVYMELSSLRSEDTAVYYCLRSLYGKGDYWGHGTTVTVSS VL: DVVMTQTPLSLSVTPGQPASISCRSSQSLVHRNGNTYLEWYLQKPGQSPQLLIYKVSNRFSGVPDRFSGSGSGTDFTLKISRVEAEDVGVYYCYQGSHVPLTFGGGTKVEIK | Yes |
| Hu3F8-H2/Hu3F8-L3 (antibody, human IgG1, V domains shown, Human IgG1 FES (L234F, L235E, P331S) and human Ig kappa constant domains; also called Hu3F8 VH2/VL3) VH: EVQLVQSGAEVKKPGASVKVSCKASGFTFTRYWMNWVRQAPGQGLEWMGRIDPSDSETHYNHKFWGRVTMTVDTSTSTVYMELSSLRSEDTAVYYCLRSLYGKGDYWGQGTTVTVSS VL: DVVMTQSPLSLPVTLGQPASISCRSSQSIVHSNGNTYLEWYQQRPGQSPRLLIYKVSNRFSGVPDRFSGSGSGTDFTLKISRVEAEDVGVYYCYQGSHVPLTFGGGTKVEIK | No |
| Hu3F6-H3/Hu3F6-L4 (antibody, human IgG1, V domains shown, Human IgG1 FES (L234F, L235E, P331S) and human Ig kappa constant domains; also called Hu3F6 VH3/VL4) VH: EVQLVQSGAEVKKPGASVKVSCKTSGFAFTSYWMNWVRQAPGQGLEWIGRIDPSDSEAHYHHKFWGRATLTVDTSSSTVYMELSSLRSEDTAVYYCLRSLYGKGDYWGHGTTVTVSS VL: DIVMTQTPLSLSVTPGQPASISCRSSQSLVHRNGNTYLEWYLQKPGQSPQLLIYKVSNRFSGVPDRFSGSGSGTDFTLKISRVEAEDVGVYYCYQGSHVPLTFGGGTKVEIK | No |
| Hu3F8-H6/Hu3F8-L5 (antibody, human IgG1, V domains shown, Human IgG1 FES (L234F, L235E, P331S) and human Ig kappa constant domains; also called Hu3F8 VH6/VL5) VH: EVQLVQSGAEVKKPGESLRISCKASGFTFTRYWMNWVRQMPGKGLEWIGRIDPSDSETHYNHKFWGHATLSVDKSSSTVYLQWSSLKASDTAMYYCLRSLYGKGDYWGQGTTVTVSS VL: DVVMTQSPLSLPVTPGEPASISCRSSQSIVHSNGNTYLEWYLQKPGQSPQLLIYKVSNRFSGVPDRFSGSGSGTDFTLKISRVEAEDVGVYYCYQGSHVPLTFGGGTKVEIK | No |

Could you please tell me whether EC50 recorded for Hu3F6-H3/Hu3F6-L3 (antibody, human IgG1, V domains shown, Human IgG1 FES (L234F, L235E, P331S) and human Ig kappa constant domains; also called Hu3F6 VH3/VL3) VH: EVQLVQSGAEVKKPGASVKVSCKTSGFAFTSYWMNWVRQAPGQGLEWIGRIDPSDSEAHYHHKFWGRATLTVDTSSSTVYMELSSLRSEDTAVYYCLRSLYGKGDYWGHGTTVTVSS VL: DVVMTQSPLSLPVTLGQPASISCRSSQSLVHRNGNTYLEWYQQRPGQSPRLLIYKVSNRFSGVPDRFSGSGSGTDFTLKISRVEAEDVGVYYCYQGSHVPLTFGGGTKVEIK is less than 0.6 nM?
No

Could you please tell me whether EC50 recorded for 3F8-12E9 (antibody, from another filing, V domains shown) VH: QVQLQQPGTELVKPGAPVKLSCKASGFTFTRYWMNWVKQRPGRGLEWIGRIDPSDSETHYNHKFWGKATLTVDKSSSTAYIQLNSLTSEDSAVYYCLRSLYGKGDYWGQGTTLTVSS VL: DVLMTQTPLSLSVGLGDQASISCRSSQSIVHSNGNTYLEWYLQRPGQSPKLLIYKVSNRFSGVPDRFSGSGSGTDFTLKISRVEAEDLGVYYCYQGSHVPLTFGSGTKLEIK is less than 0.6 nM?
Yes
